// pIC50 lookup, one value per entry
PROCEDURE SUMMARY: Inhibition of Escherichia coli DNA gyrase supercoiling activity
Conceptually, pIC50 converts a concentration in mol/L into minus its log10.

- N#Cc1ccc2c(c1)N(CCN1CCC(NCc3ccc4c(n3)NC(=O)CO4)CC1)C(=O)CO2: 8.49

Okay, next one:
The compound `COc1ccc2c(c1)N(CCN1CCC(NCc3ccc4c(n3)NC(=O)CO4)CC1)C(=O)CO2` showed pIC50 equal to 8.30

====

System: Streptococcus pneumoniae
PROCEDURE SUMMARY: Antibacterial activity against Streptococcus pneumoniae after 24 hrs by CLSI method
Format: functional
Binarize MIC at 0.8 µM; below is T, at or above is F.

Consider the worked cases shown below.
- CN(C)S(=O)(=O)c1ccc2c(c1)N(CCN1CCC(NCc3ccc4c(n3)NC(=O)CO4)CC1)C(=O)CO2: F
- O=C1COc2ccc(CNC3CCN(CCN4C(=O)COc5ccc(NC(=O)C(F)(F)F)cc54)CC3)nc2N1: F
- O=C1COc2ccc(CNC3CCN(CCN4C(=O)COc5ccc(Br)cc54)CC3)nc2N1: T
- CCS(=O)(=O)c1ccc2c(c1)N(CCN1CCC(NCc3ccc4c(n3)NC(=O)CO4)CC1)C(=O)CO2: F

Exam item: A record lists `O=C1COc2ccc(CNC3CCN(CCN4C(=O)COc5ccc(Cl)cc54)CC3)nc2N1` . Is its MIC below 0.8 µM?
Marked response: T

Exam item: A record lists `O=C1COc2ccc(CNC3CCN(CCN4C(=O)COc5ccc(OC(F)(F)F)cc54)CC3)nc2N1` . Is its MIC below 0.8 µM?
Marked response: F

Exam item: A record lists `CS(=O)(=O)c1ccc2c(c1)N(CCN1CCC(NCc3ccc4c(n3)NC(=O)CO4)CC1)C(=O)CO2` . Is its MIC below 0.8 µM?
Marked response: F

Exam item: A record lists `O=C1COc2ccc(CNC3CCN(CCN4C(=O)COc5ccc(F)cc54)CC3)nc2N1` . Is its MIC below 0.8 µM?
Marked response: F

====

PROCEDURE SUMMARY: Lipophilicity, log D of the compound by shake flask method using LC-MS analysis
Type: physicochemical
CONDITION CONTEXT: octanol/water
RECORDED METRIC: logD
Respond numerically, and do not add a unit to the figure.

Answered cases to consult:
- O=C1COc2ccc(CNC3CCN(CCN4C(=O)COc5ccc(OC(F)(F)F)cc54)CC3)nc2N1: 1.8
- O=C1COc2ccc(CNC3CCN(CCN4C(=O)COc5ccc(-n6cnnn6)cc54)CC3)nc2N1: -0.8
- O=C1COc2ccc(CNC3CCN(CCN4C(=O)COc5ccc(Cl)cc54)CC3)nc2N1: 1.3
- CC(O)c1ccc2c(c1)N(CCN1CCC(NCc3ccc4c(n3)NC(=O)CO4)CC1)C(=O)CO2 (configuration not stated): 0.3
- COC(=O)c1ccc2c(c1)N(CCN1CCC(NCc3ccc4c(n3)NC(=O)CO4)CC1)C(=O)CO2: 0.8
- O=C1COc2ccc(CNC3CCN(CCN4C(=O)COc5ccc(-c6ccco6)cc54)CC3)nc2N1: 2.2

The compound `CCS(=O)(=O)c1ccc2c(c1)N(CCN1CCC(NCc3ccc4c(n3)NC(=O)CO4)CC1)C(=O)CO2` showed logD equal to -0.1

The compound `CS(=O)(=O)c1ccc2c(c1)N(CCN1CCC(NCc3ccc4c(n3)NC(=O)CO4)CC1)C(=O)CO2` showed logD equal to -0.5

The compound `N#Cc1ccc2c(c1)N(CCN1CCC(NCc3ccc4c(n3)NC(=O)CO4)CC1)C(=O)CO2` showed logD equal to 0.2

The compound `O=C1COc2ccc(CNC3CCN(CCN4C(=O)COc5ccc(Br)cc54)CC3)nc2N1` showed logD equal to 1.4

The compound `COc1ccc2c(c1)N(CCN1CCC(NCc3ccc4c(n3)NC(=O)CO4)CC1)C(=O)CO2` showed logD equal to 0.9

The compound `O=C1COc2ccc(CNC3CCN(CCN4C(=O)COc5ccc(O)cc54)CC3)nc2N1` showed logD equal to 0.5
